Values from patent US10028956B2

Assay: PK in rat
Conditions: in vivo, intravenous, 1 mg/kg i.v. and 3 mg/kg p.o.
parameterMeasured: Vd (L/kg)
Reply numerically in L/kg, unit not repeated.

Kindly indicate its recorded Vd. Item: COc1cc2nccc(Oc3ccc(NC(=O)c4cn(C(C)C)c(=O)n(-c5ccc(F)cc5)c4=O)cc3F)c2cc1OC
2.6

---

Assay: PK in rat
Settings: in vivo, 1 mg/kg i.v. and 3 mg/kg p.o.
parameterMeasured: Cmax (ng/mL)
Reply numerically in ng/mL, unit not repeated.

Kindly indicate its recorded Cmax. Item: COc1cc2nccc(Oc3ccc(NC(=O)c4cn(C(C)C)c(=O)n(-c5ccc(F)cc5)c4=O)cc3F)c2cc1OC
593

---

Assay: PK in monkey
Settings: in vivo, po, 0.5 mg/kg p.o.
parameterMeasured: AUC(0-t) (ng·h/mL)
Reply numerically in ng·h/mL, unit not repeated.

Kindly indicate its recorded AUC(0-t). Item: COc1cc2nccc(Oc3ccc(NC(=O)c4cn(C(C)C)c(=O)n(-c5ccc(F)cc5)c4=O)cc3F)c2cc1OC
3030

---

Molecular target: AXL (Homo sapiens)
Sequence (P30530 26-894): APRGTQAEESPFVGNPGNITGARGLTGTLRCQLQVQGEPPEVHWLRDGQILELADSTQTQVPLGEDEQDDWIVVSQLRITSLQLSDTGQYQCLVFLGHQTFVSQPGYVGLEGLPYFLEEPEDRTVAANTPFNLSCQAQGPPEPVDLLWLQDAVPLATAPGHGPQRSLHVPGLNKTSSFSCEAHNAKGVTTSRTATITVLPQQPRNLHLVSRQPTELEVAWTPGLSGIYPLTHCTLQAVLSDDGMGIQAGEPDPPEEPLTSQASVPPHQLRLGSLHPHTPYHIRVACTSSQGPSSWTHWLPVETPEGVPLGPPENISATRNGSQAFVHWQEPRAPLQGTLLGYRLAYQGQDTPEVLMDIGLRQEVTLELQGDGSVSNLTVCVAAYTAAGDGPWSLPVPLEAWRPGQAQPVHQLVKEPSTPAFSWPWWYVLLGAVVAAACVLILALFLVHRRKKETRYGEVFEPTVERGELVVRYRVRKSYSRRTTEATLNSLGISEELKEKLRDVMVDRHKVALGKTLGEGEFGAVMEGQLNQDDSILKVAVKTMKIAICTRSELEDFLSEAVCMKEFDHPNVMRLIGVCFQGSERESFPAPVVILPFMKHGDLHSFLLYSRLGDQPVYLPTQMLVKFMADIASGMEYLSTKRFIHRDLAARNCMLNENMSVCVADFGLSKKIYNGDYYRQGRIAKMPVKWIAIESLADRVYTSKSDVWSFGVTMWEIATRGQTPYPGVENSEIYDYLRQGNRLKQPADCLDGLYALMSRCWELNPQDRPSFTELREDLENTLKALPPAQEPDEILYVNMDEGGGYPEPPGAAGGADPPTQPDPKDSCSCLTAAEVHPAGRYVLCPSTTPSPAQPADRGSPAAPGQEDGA
Test: AXL enzyme inhibition (recombinant enzyme)
Type: biochemical
parameterMeasured: IC50 (nM)
Reply numerically in nM, unit not repeated.

Kindly indicate its recorded IC50. Item: COc1cc2nccc(Oc3ccc(NC(=O)c4cn(C(C)C)c(=O)n(-c5ccc(F)cc5)c4=O)cc3F)c2cc1OC [CEP-40783]
7

---

Experiment: PK in monkey
Conditions: in vivo, iv, 0.5 mg/kg i.v., read-out: t1/2 i.v. (converted)
parameterMeasured: half-life (h)
Reply numerically in h, unit not repeated.

Kindly indicate its recorded half-life. Item: COc1cc2nccc(Oc3ccc(NC(=O)c4cn(C(C)C)c(=O)n(-c5ccc(F)cc5)c4=O)cc3F)c2cc1OC [CEP-40783]
14.5

---

Test: PK in rat
Settings: in vivo, po, 3 mg/kg p.o.
parameterMeasured: AUC(0-t)

Kindly indicate its recorded AUC(0-t). Item: COc1cc2nccc(Oc3ccc(NC(=O)c4cn(C(C)C)c(=O)n(-c5ccc(F)cc5)c4=O)cc3F)c2cc1OC [CEP-40783]
16300 ng·h/mL

---

Experiment: PK in dog
Details: in vivo, iv, 0.5 mg/kg i.v., read-out: t1/2 i.v. (converted)
parameterMeasured: half-life (h)
Reply numerically in h, unit not repeated.

Kindly indicate its recorded half-life. Item: COc1cc2nccc(Oc3ccc(NC(=O)c4cn(C(C)C)c(=O)n(-c5ccc(F)cc5)c4=O)cc3F)c2cc1OC [CEP-40783]
27.6

---

Assay: PK in rat
Settings: in vivo, intravenous, 1 mg/kg i.v. and 3 mg/kg p.o.
parameterMeasured: clearance (mL/min/kg)
Reply numerically in mL/min/kg, unit not repeated.

Kindly indicate its recorded clearance. Item: COc1cc2nccc(Oc3ccc(NC(=O)c4cn(C(C)C)c(=O)n(-c5ccc(F)cc5)c4=O)cc3F)c2cc1OC
1.4

---

Target: c-Met (Homo sapiens)
Experiment: c-Met enzyme inhibition
Format: biochemical
parameterMeasured: IC50

Kindly indicate its recorded IC50. Item: COc1cc2nccc(Oc3ccc(NC(=O)c4cn(C(C)C)c(=O)n(-c5ccc(F)cc5)c4=O)cc3F)c2cc1OC
0.012 µM

---

Molecular target: c-Met (Homo sapiens, UniProt P08581)
Sequence (P08581 25-1390): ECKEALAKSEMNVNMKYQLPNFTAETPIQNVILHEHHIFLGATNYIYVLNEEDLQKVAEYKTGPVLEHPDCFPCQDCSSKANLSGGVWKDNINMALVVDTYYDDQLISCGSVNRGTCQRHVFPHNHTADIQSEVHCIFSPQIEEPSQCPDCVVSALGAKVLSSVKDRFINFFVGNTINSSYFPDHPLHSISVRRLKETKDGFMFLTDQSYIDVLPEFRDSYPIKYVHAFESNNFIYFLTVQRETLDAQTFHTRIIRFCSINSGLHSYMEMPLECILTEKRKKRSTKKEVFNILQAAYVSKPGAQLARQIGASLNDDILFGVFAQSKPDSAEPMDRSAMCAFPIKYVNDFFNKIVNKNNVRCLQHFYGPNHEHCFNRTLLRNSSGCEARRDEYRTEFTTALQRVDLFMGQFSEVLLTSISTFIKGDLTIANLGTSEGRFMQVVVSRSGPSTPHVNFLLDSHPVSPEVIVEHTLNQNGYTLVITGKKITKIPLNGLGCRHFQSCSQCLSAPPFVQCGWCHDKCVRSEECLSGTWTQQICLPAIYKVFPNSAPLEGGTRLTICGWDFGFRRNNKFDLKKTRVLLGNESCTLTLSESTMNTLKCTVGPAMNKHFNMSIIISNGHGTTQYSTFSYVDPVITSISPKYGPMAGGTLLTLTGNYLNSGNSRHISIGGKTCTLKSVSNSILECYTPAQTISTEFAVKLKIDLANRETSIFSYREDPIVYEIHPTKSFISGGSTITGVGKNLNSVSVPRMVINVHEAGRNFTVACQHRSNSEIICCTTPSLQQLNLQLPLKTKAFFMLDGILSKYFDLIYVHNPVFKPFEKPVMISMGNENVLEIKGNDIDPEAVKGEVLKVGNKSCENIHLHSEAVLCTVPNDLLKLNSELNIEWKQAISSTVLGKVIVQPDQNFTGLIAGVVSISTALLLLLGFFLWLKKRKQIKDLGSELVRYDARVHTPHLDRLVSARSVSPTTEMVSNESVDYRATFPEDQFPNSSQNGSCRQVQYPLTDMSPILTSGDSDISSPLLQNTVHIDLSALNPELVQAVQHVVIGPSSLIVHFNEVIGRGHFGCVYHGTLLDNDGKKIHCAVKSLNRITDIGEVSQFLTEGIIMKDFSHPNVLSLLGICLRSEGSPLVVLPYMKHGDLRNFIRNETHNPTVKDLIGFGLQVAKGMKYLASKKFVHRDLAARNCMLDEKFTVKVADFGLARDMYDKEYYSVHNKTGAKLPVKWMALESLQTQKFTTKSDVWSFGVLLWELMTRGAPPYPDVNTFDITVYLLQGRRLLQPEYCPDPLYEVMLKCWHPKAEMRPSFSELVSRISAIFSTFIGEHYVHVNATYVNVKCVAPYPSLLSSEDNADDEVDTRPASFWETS
Assay: Cellular c-Met inhibition in GTL-16 cells
Assay type: cell-based
Design: endogenous in cells; host or cells: GTL-16 human gastric carcinoma cells
parameterMeasured: pIC50
Note on pIC50: it is the negative log10 of concentration, concentration in mol/L.

Kindly indicate its recorded pIC50. Item: COc1cc2nccc(Oc3ccc(NC(=O)c4cn(C(C)C)c(=O)n(-c5ccc(F)cc5)c4=O)cc3F)c2cc1OC [CEP-40783]
8.22

---

Assay: PK in monkey
Details: in vivo, intravenous, 0.5 mg/kg i.v. and p.o.
parameterMeasured: clearance (mL/min/kg)
Reply numerically in mL/min/kg, unit not repeated.

Kindly indicate its recorded clearance. Item: COc1cc2nccc(Oc3ccc(NC(=O)c4cn(C(C)C)c(=O)n(-c5ccc(F)cc5)c4=O)cc3F)c2cc1OC [CEP-40783]
2.2

---

Assay: PK in rat
Conditions: in vivo, oral, 1 mg/kg i.v. and 3 mg/kg p.o.
parameterMeasured: bioavailability (%)
Reply numerically in %, unit not repeated.

Kindly indicate its recorded bioavailability. Item: COc1cc2nccc(Oc3ccc(NC(=O)c4cn(C(C)C)c(=O)n(-c5ccc(F)cc5)c4=O)cc3F)c2cc1OC
57
